melting point values, listed per item

Check out these entries, answers already filled in.
{"compound": "CCCCCCCCCCCCCCCCCCOc1ncc(C(C)NS(=O)(=O)c2ccc(Cl)c(Cl)c2)n1CC (stereo not shown) [Compound 238]", "melting point": "117 to 118 °C"}
{"compound": "C#CCCCOc1ncc(C(C)NS(=O)(=O)c2ccc(Cl)c(Cl)c2)n1CC (stereo not shown) [Compound 226]", "melting point": "172.5 to 173.5 °C"}
{"compound": "CC(NS(=O)(=O)c1ccc(Cl)c(Cl)c1)c1cnc(Oc2ccc(F)cc2)n1C (stereo not shown) [Compound 211]", "melting point": "179.5 to 180.5 °C"}

Shift focus to the following entry.
Record summary for CCn1c(C(C)NS(=O)(=O)c2ccc(Cl)c(Cl)c2)cnc1Oc1ccccc1 (stereo not shown) [Compound 204] : reported melting point = 166.5 to 167.5 °C

This collection of values is drawn from patent US7994204B2.
